Reference for the values: patent US12622974B2

assayRemarks: Cytotoxicity test, MTT colorimetric method, L02
Format: cell-based
runParameters: human, L02 cells (human normal hepatocytes); L02 cells, MTT, 72 hours; read-out: Cytotoxicity IC50 L02
readoutKind: IC50 at 72 h (nM)
Give bare numbers, in nM.

Prompt line: Reported IC50 at 72 h for CN(Cc1cnc2nc(N)nc(N)c2n1)c1ccc(C(=O)N[C@@H](CCC(=O)O)C(=O)O)cc1 [Methotrexate, reference compound] : what is it?
Response line: 10

====

assayRemarks: Cytotoxicity test, MTT colorimetric method, HUVEC
Assay type: cell-based
runParameters: human
Description: The cytotoxicity test was carried out with the MTT colorimetric method. 5×10^3 cells in a logarithmic growth phase were inoculated in each well of a 96-well plate, and incubated overnight at 37° C. in an incubator (5% CO2). Then, different concentrations of compounds were added and the incubation further continued for 72 hours. […] The absorbance of each well was measured at OD490 nm of the enzyme-linked immunometric meter. […]
*1 amine or outer side, *2 acyl side, *3 side chain or, on linkers, in order; H or OH if unused. Where a SMILES comes first, the peptide text is derived from it. [ ]: non-standard residue; d: D form. The star is where a group is joined. DAMPA = CN(Cc1cnc2nc(N)nc(N)c2n1)c1ccc(C(=O)*)cc1; Orn(N5-OH,N5-Ac) = CC(=O)N(O)CCC[C@H](N)C(=O)O; d(γGlu) = O=C(O)[C@@H](CCC(=O)[*:2])N[*:1]; Ethylenediamine = C(CN[*:2])N[*:1]
readoutKind: IC50 at 72 h (µM)
Numbers only, in µM.

# annotated cases, reported IC50 at 72 h shown
Prompt line: Reported IC50 at 72 h for `CC(=O)N(O)CCC[C@H](NC(=O)[C@H](CCCN(O)C(C)=O)NC(=O)[C@@H](N)CCCN(O)C(C)=O)C(=O)NCCNC(=O)[C@H](CO)NC(=O)[C@H](CO)NC(=O)CC[C@@H](NC(=O)c1ccc(N(C)Cc2cnc3nc(N)nc(N)c3n2)cc1)C(=O)O` : what is it?
Response line: 18.4

Prompt line: Reported IC50 at 72 h for `CC(=O)N(O)CCC[C@H](NC(=O)[C@H](CCCN(O)C(C)=O)NC(=O)[C@@H](N)CCCN(O)C(C)=O)C(=O)NCCNC(=O)[C@H](CCCCN)NC(=O)CC[C@@H](NC(=O)c1ccc(N(C)Cc2cnc3nc(N)nc(N)c3n2)cc1)C(=O)O` : what is it?
Response line: 16.6

Prompt line: Reported IC50 at 72 h for `CC(=O)N(O)CCC[C@H](NC(=O)[C@H](CCCN(O)C(C)=O)NC(=O)[C@@H](N)CCCN(O)C(C)=O)C(=O)NCCCCCNC(=O)CC[C@@H](NC(=O)c1ccc(N(C)Cc2cnc3nc(N)nc(N)c3n2)cc1)C(=O)O` : what is it?
Response line: 31

Prompt line: Reported IC50 at 72 h for CC(=O)N(O)CCC[C@H](NC(=O)[C@H](CCCN(O)C(C)=O)NC(=O)[C@@H](N)CCCN(O)C(C)=O)C(=O)N[C@@H](CO)C(=O)NCCNC(=O)CC[C@@H](NC(=O)c1ccc(N(C)Cc2cnc3nc(N)nc(N)c3n2)cc1)C(=O)O [3-4f] (H-[Orn(N5-OH,N5-Ac)][Orn(N5-OH,N5-Ac)][Orn(N5-OH,N5-Ac)]S-{Ethylenediamine-d(γGlu)-DAMPA}) : what is it?
Response line: 19.2

Continuing:
Prompt line: Reported IC50 at 72 h for `CC(=O)N(O)CCC[C@H](NC(=O)[C@H](CCCN(O)C(C)=O)NC(=O)[C@@H](N)CCCN(O)C(C)=O)C(=O)NCCOCCOCCNC(=O)CC[C@@H](NC(=O)c1ccc(N(C)Cc2cnc3nc(N)nc(N)c3n2)cc1)C(=O)O` : what is it?
Response line: 4.52
